system: SM1411 (acrAB deficient derivative of 1411); assay: MIC by broth microdilution, SM1411; assay type: cell-based, E. coli; conditions: with polymyxin B nonapeptide (4 μg/ml)
Field: MIC SM1411 +PMBN. Provide a value for each of the compounds that follow.
Give bare numbers, in µg/mL.

// for each compound in input: emit MIC SM1411 +PMBN
1. Nc1ncc2cc(-c3c(F)cccc3F)c(N)nc2n1
2. COc1cc(OC)cc(-c2cc3cnc(N)nc3nc2N)c1
3. CC(C)(C)NC(=O)Nc1nc2nc(N)ncc2cc1-c1cc(Cl)cc(Cl)c1
4. CC(C)(C)NC(=O)Nc1nc2nc(N)ncc2cc1-c1c(Br)cccc1Br
5. COc1cc(OC)cc(-c2cc3cnc(NCCCN4CCOCC4)nc3nc2NC(=O)NC(C)(C)C)c1

RESULT:
8
128
32
4
128

---

target: DdlB (Escherichia coli)
readout.label: pKd
Give bare numbers, as −log10 of the molar value.

Answered examples (5):
1. Nc1ncc2cc(-c3c(F)cccc3F)c(N)nc2n1 | 3.99
2. Nc1ncc2cc(-c3ccccc3)c(N)nc2n1 | 3.82
3. Nc1ncc2cc(-c3c(Br)cccc3Br)c(N)nc2n1 | 3.79
4. COc1cc(OC)cc(-c2cc3cnc(N)nc3nc2NC(=O)NC(C)(C)C)c1 | 4.72
5. CC(C)(C)NC(=O)Nc1nc2nc(N)ncc2cc1-c1c(Cl)cccc1Cl | 4.78

QUERY: Using the record for `Nc1ncc2cc(-c3ccc4c(c3)OCO4)c(N)nc2n1` , state its measured pKd.
RESULT: 3.98

---

Field: melting point. Provide a value for each of the compounds that follow.

1) CC(C)(C)NC(=O)Nc1nc2nc(N)ncc2cc1-c1c(F)cccc1Cl [Compound 32] | > 300 °C
2) CN(C)CCCNc1ncc2cc(-c3c(Cl)cccc3Cl)c(N)nc2n1 [Compound 30] | 241 to 244 °C

// for each compound in input: emit melting point
1. Nc1ncc2cc(-c3ccccc3)c(N)nc2n1 [Compound 11]
2. Nc1ncc2cc(-c3cc(F)cc(F)c3)c(N)nc2n1 [Compound 20]
3. Nc1ncc2cc(-c3cc(Cl)cc(Cl)c3)c(N)nc2n1 [Compound 22]

RESULT:
1. > 300 °C
2. > 300 °C
3. > 300 °C

---

The reader will find IC50 measurements below, all made with E. coli DdlB (Escherichia coli, UniProt P07862).
Give bare numbers, in µM.

1. Nc1ncc2cc(-c3ccccc3)c(N)nc2n1 | 1140
2. COc1cc(OC)cc(-c2cc3cnc(NCCCN4CCOCC4)nc3nc2NC(=O)NC(C)(C)C)c1 | 133
3. N[C@@H]1CON=C1O [D-cycloserine, D-4-amino-3-isoxazolidone, reference compound] | 296
4. Nc1ncc2cc(-c3ccc4c(c3)OCO4)c(N)nc2n1 | 1110
5. COc1cc(OC)cc(-c2cc3cnc(N)nc3nc2N)c1 | 908
6. CC(C)(C)NC(=O)Nc1nc2nc(N)ncc2cc1-c1cc(C(F)(F)F)cc(C(F)(F)F)c1 | 260
7. COc1cc(OC)cc(-c2cc3cnc(N)nc3nc2NC(=O)NC(C)(C)C)c1 | 340
8. Nc1ncc2cc(-c3c(Cl)cccc3Cl)c(N)nc2n1 | 529
9. CC(C)(C)NC(=O)Nc1nc2nc(N)ncc2cc1-c1c(Br)cccc1Br | 583
10. Nc1ncc2cc(-c3c(Br)cccc3Br)c(N)nc2n1 | 453

// for each molecule in input: emit IC50
1. CC(C)(C)NC(=O)Nc1nc2nc(N)ncc2cc1-c1c(Cl)cccc1Cl
2. CC(C)(C)NC(=O)Nc1nc2nc(N)ncc2cc1-c1cc(Cl)cc(Cl)c1

RESULT:
1: 655; 2: 383

QUERY: Enter measured IC50, system E. coli DdlB (Escherichia coli, UniProt P07862), for the molecule shown: `Nc1ncc2cc(-c3c(F)cccc3F)c(N)nc2n1`
RESULT: 1110
